Provenance of the data: PubChem BioAssay (NCATS)

test system: ICS; assay: qHTS profiling for inhibitors of Plasmodium falciparum proliferation (AID 504749); further: nearly all actives have a fitted effect of over 60% in size; further: potency means the concentration at half of the fitted maximal effect; conditions: P. falciparum in erythrocytes, SYBR Green DNA, 72 h; series mostly up to 28.7 µM
Records with an inconclusive call do not appear. Calls of active or inactive are those of the source. The call rests on the fitted dose curve; in most records, active means well fitted inhibition curve with a large enough effect; inconclusive means small, poorly fitted or top-dose-only effect; inactive means flat fitted curve, though single readings scatter.
Readout name: Potency

Reference set, count: 5
> print(dat)
                                   compound  tgt  readout.name           reading
1                         CCCCCCCCCCCCCCCCO  ICS       Potency          inactive
2                  C/C=C/C=N/NC(=O)c1ccncc1  ICS       Potency          inactive
3      CC(C)(C)NC[C@H](O)COc1cccc2c1CCCC2=O  ICS       Potency          inactive
4                     CCCCCCCCCCCCCCCC(=O)O  ICS       Potency          inactive
5  CC(C)(Cc1c[nH]c2ccccc12)NCC(O)COc1ccccc1C#N (stereo not drawn)  ICS       Potency  11.2 µM (active)

Give the measured Potency of Cc1ccccc1OCC(O)CO (stereo not drawn) .
inactive

Would you kindly repeat that for COc1ccc(CN(CCN(C)C)c2ncccn2)cc1 ?
inactive

Would you kindly repeat that for CC(=O)Nc1ccc(OC(=O)c2ccccc2OC(C)=O)cc1 ?
inactive

Would you kindly repeat that for Cc1cc(NS(=O)(=O)c2ccc(N)cc2)nc(C)n1 ?
inactive

Would you kindly repeat that for NC(=O)C1(N2CCCCC2)CCN(CCCC(=O)c2ccc(F)cc2)CC1 ?
inactive
